The measurements presented in this section are drawn from ChEMBL document CHEMBL3785024.

- Method summary: AUC (0 to 24 hrs) in healthy human subjects at 40 mg with 200 ml grape fruit juice drug administered as single dose on day 3 of grape fruit juice challenge measured upto 24 hrs by LC-MS analysis
- Assay type: ADME, organism-based
- Parameters: dose 40 mg, time < 24 hr
- Condition parameters: in vivo, oral
Measured endpoint: AUC(0-t) at 24 h (ng·h/mL)
Respond with the bare value in ng·h/mL.

Form: compound = CCC(C)(C)C(=O)O[C@H]1C[C@@H](C)C=C2C=C[C@H](C)[C@H](CC[C@@H]3C[C@@H](O)CC(=O)O3)[C@H]21 [SIMVASTATIN] ; AUC(0-t) at 24 h = 112
